- Test system: Mus musculus
- protocol: Anticonvulsant activity in ip dosed Swiss albino mouse assessed as reduction of maximal electroshock-induced seizure after 4 hrs
- Assay type: functional
- reported_conditions: read-out: MED
readout_type: minimal effective dose (mg/kg)
Numeric only. Scale: mg/kg

# minimal effective dose (molecule: CCOC(=O)C1C(c2ccc(C)cc2)NC(c2ccc(C)cc2)C(C(=O)OCC)S1(=O)=O (stereo not drawn) ) is 100

GET /value?item= CCOC(=O)C1C(c2ccco2)NC(c2ccco2)C(C(=O)OCC)S1(=O)=O (stereo not drawn) &field=minimal effective dose returns 300

CCOC(=O)C1C(c2ccc(OC)cc2)NC(c2ccc(OC)cc2)C(C(=O)OCC)S1(=O)=O (stereo not drawn) yielded minimal effective dose of 300

// field: minimal effective dose; key: CCOC(=O)C1C(c2ccc([N+](=O)[O-])cc2)NC(c2ccc([N+](=O)[O-])cc2)C(C(=O)OCC)S1(=O)=O (stereo not drawn) ; value = 100

Per the records, this molecule ( CCOC(=O)C1C(c2cc3ccccc3[nH]2)NC(c2cc3ccccc3[nH]2)C(C(=O)OCC)S1(=O)=O (stereo not drawn) ) has minimal effective dose equal to 100

minimal effective dose recorded for this molecule, `O=C1NC(=O)C(c2ccccc2)(c2ccccc2)N1` , is 30

CCOC(=O)C1C(c2ccccn2)NC(c2ccccn2)C(C(=O)OCC)S1(=O)=O (stereo not drawn) has a reported minimal effective dose of 300

Data point: CCOC(=O)C1C(c2cccs2)NC(c2cccs2)C(C(=O)OCC)S1(=O)=O (stereo not drawn) ; minimal effective dose = 300

For CCOC(=O)C1C(c2ccccc2Cl)NC(c2ccccc2Cl)C(C(=O)OCC)S1(=O)=O (stereo not drawn) the molecule record lists minimal effective dose as 300

Entry CCOC(=O)C1C(c2ccc3c(c2)OCO3)NC(c2ccc3c(c2)OCO3)C(C(=O)OCC)S1(=O)=O (stereo not drawn) — recorded minimal effective dose = 100

Value of measured minimal effective dose for the entry CCOC(=O)C1C(c2ccc(Cl)cc2)NC(c2ccc(Cl)cc2)C(C(=O)OCC)S1(=O)=O (stereo not drawn) : 30

CCOC(=O)C1C(c2cccnc2)NC(c2cccnc2)C(C(=O)OCC)S1(=O)=O (stereo not drawn) yielded minimal effective dose of 300

Documented minimal effective dose of CCOC(=O)C1C(c2ccsc2)NC(c2ccsc2)C(C(=O)OCC)S1(=O)=O (stereo not drawn) : 300

CCOC(=O)C1C(c2ccc[nH]2)NC(c2ccc[nH]2)C(C(=O)OCC)S1(=O)=O (stereo not drawn) has a reported minimal effective dose of 300

Reported minimal effective dose of CCOC(=O)C1C(c2ccc(OC)c(OC)c2)NC(c2ccc(OC)c(OC)c2)C(C(=O)OCC)S1(=O)=O (stereo not drawn) : 300

Lab note: measured minimal effective dose of CCOC(=O)C1C(c2ccccc2)NC(c2ccccc2)C(C(=O)OCC)S1(=O)=O (stereo not drawn) was 100

get_value(item= CCOC(=O)C1C(c2cccc(Cl)c2)NC(c2cccc(Cl)c2)C(C(=O)OCC)S1(=O)=O (stereo not drawn) , readout=minimal effective dose) returns 300

Looking up CCOC(=O)C1C(c2cc3ccccc3nc2Cl)NC(c2cc3ccccc3nc2Cl)C(C(=O)OCC)S1(=O)=O (stereo not drawn) , I found its minimal effective dose recorded as 100
